Sourced from patent US20200147199A1

target: ZIKV E Domain III ([..]), polyhistidine-AviTag, produced in HEK-293-6E cells (ZIKV); test: ELISA on coated ZIKV EDIII; conditions: remark: other sources report otherwise
Rule: EC50 below 0.2 µg/mL gives condition met, anything at or above gives condition not met.

Solved entries (count: 4):
Z061 (BRA112_36) (antibody, V domains shown) VH: EVQLVESGGGVVQPGRSLRLSCAASGFTFSISTIHWVRQAPGKGLEYVVVISHDGNTKYYADSVKGRFIISRDNSKNTVFLQMNSLRPVDTAVYYCARGEVGYFDLWGRGTLVTVSS VL: EIVLTQSPATLSLSPGERATLSCRASQSVSSFLAWYQQKPGQPPRLLIYDASTRATGIPARFSGSGSGTDFTLTISSLEPEDFAVYYCQQRSNWPPITFGQGTRLEIK; condition not met
Z003 (MEX18_58) (antibody, V domains shown) VH: EVQLLESGGGLVQPGGSLRLSCATSGFTFTTFAMSWVRQAPGKGLEWVSSISGADDSTYYAASVKGRFTISRDNSRSTLFLQMNSLRAEDTAVYYCAKDRGPRGVGELFDSWGQGTLVTVSS VL: DIQMTQSPSTLSASVGDRVTITCRASQSISKWLAWYQQKPGKAPRLLIYTTSTLKSGVPSRFSGSGSGTEFTLTISSLQPDDFATYYCQHFFSVPWTFGQGTKVEIK; condition met
Z009 (MEX105_64) (antibody, V domains shown) VH: EVQLLESGGGLVRPGGSLRLSCTASGFTFRRYAMAWVRQAPGKGLEWVSLIYNGDDSTYYAESVKGRFTVSRDNSQNTLSLQMNSLRAEDTAIYYCVRDRDNGWSSIVDWGQGTLVTVSS VL: DIQMTQSPSTLSASVGDRVTITCRASRTIGSWLAWYQQKPGKAPKLLIYQASILEGGVPSRFSGSVSGTEFTLTIRSLQPEDFATYFCQQYSTFWTFGQGTKVEIK; condition met
Z005 (MEX18_13) (antibody, V domains shown) VH: EVQLLESGGGLVQPGGSLRLSCAASGFTFSSYAMSWVRQAPGKGLEWVSSFSGIDDSTWYADSVKGRFTISRDNSKSTLYLQMNSLRAEDTAVYYCAKDRLVRGFAEVLDYWGRGTLVTVSS VL: DIQMTQSPSSLSASVGDRVTITCRASQDISKYLAWYQQRPGKVPNLLIYTASTLQSGVPSRFSGSGSGTHFTLTISSLQPEDVATYYCQKYNSVPWTFGQGTKVEIK; condition not met

Here's the next entry for you.
q: For Z053 (BRA138_65) (antibody, V domains shown) VH: QLQLQESGPGLVKPSETLSLTCTVSGGSISSYNYYWGWIRQPPGKGLEFIGSIYYTGSTYYNPSLRSRVTISVDTSKNQFSLKLTSVTAADTAVYYCARHGPGMGHNWYFDLWGRGTLVTVSS VL: EIVLTQSPATLSLSPGERATLSCRASQSISSYLAWYQQKPGQAPRLLIYDASNRAPGIPARFSGSGSGTDFTLTISSLEPEDFAVYYCQQRSTWLTFGGGTKVEIK , is the recorded EC50 below the cut-off of 0.2 µg/mL?
a: condition not met
